# maps each entry to its EC50
# System: HCV 1a RLuc cells (dicistronic genotype 1a H77 replicon, RLuc reporter)
# Test: microbe, parasite or virus in culture
# Format: cell-based
# Measurement Parameters: Hepatitis C virus, genotype 1a H77 RLuc replicon; read-out: 1a
# Procedure: Evaluation of cell-based anti-HCV activity: Antiviral potency (EC50) was determined using a Renilla luciferase (RLuc)-based HCV replicon reporter assay. […] 72 hours later, cells were lysed and Renilla luciferase activity quantified as recommended by the manufacturer (Promega-Madison, Wis.). […]
Measurement Type: EC50

- COC[C@H]1C[C@@H](c2nc3ccc4cc5c(cc4c3[nH]2)OCc2cc(-c3cnc([C@@H]4C[C@H](C)CN4C(=O)[C@@H](NC(=O)OC)C(C)C)[nH]3)ccc2-5)N(C(=O)[C@@H](NC(=O)OC)C(C)C)C1: 0.001 to 0.999 nM
- COC(=O)N[C@H](C(=O)N1[C@H](c2nc3ccc4cc5c(cc4c3[nH]2)OCc2cc(-c3cnc(C4CCCN4C(=O)[C@H](NC(=O)OC)c4ccccc4)[nH]3)ccc2-5)C[C@@H]2CCC[C@@H]21)C(C)C (some centres unmarked): 0.001 to 0.999 nM

====

The following compounds are listed with their measured EC50 values.
# Test system: HCV 2a JFH-1 Rluc cells (dicistronic genotype 2a JFH-1 replicon, RLuc reporter)
# Test: microbe, parasite or virus in culture
# Type: cell-based
# Measurement Parameters: Hepatitis C virus, genotype 2a JFH-1 RLuc replicon; read-out: 2a JFH
Measurement Type: EC50

* COC(=O)N[C@H](C(=O)N1[C@H](c2nc3ccc4cc5c(cc4c3[nH]2)OCc2cc(-c3cnc(C4CCCN4C(=O)[C@@H](NC(=O)OC)C4CCOCC4)[nH]3)ccc2-5)C[C@@H]2CCC[C@@H]21)C(C)C (stereo partly drawn) [Example 575] | 1 to 999 pM
* COC(=O)N[C@@H](C(=O)N1C[C@@H](C)C[C@H]1c1ncc(-c2cc3c4c(c2)OCc2cc(-c5cnc([C@@H]6C[C@H](C)CN6C(=O)[C@H](NC(=O)OC)c6ccccc6)[nH]5)cc(c2-4)OC3)[nH]1)c1ccccc1 [Example 505] | 1 to 999 pM
* COC(=O)N[C@H](C(=O)N1CCCC1c1ncc(-c2ccc3c(c2)COc2cc4c(ccc5nc([C@@H]6C[C@@H]7CCC[C@@H]7N6C(=O)[C@@H](NC(=O)OC)C(C)C)[nH]c54)cc2-3)[nH]1)C(C)C (stereo partly drawn) [Example 576] | 1 to 999 pM
* COC(=O)N[C@H](C(=O)N1C[C@@H](COC(F)F)C[C@H]1c1ncc(-c2ccc3c(c2)COc2cc4c(ccc5nc([C@@H]6CC[C@H](C)N6C(=O)[C@@H](NC(=O)OC)C(C)C)[nH]c54)cc2-3)[nH]1)C(C)C [Example 632] | 1 to 999 pM
* COC[C@H]1C[C@@H](c2ncc(-c3ccc4c(c3)COc3cc5c(ccc6nc([C@@H]7C[C@H]8C[C@H]8N7C(=O)[C@@H](NC(=O)OC)C(C)C)[nH]c65)cc3-4)[nH]2)N(C(=O)[C@H](NC(=O)OC)c2ccccc2)C1 [Example 633] | 1 to 999 pM
* COC(=O)NC(C(=O)N1C[C@@H](C)C[C@H]1c1nc2ccc3cc4c(cc3c2[nH]1)OCc1cc(-c2cnc([C@@H]3CC[C@H](C)N3C(=O)[C@@H](NC(=O)OC)C(C)C)[nH]2)ccc1-4)[C@H](C)OC (stereo partly drawn) [Example 621] | 1 to 999 pM

====

# Tested on: HCV 2a JFH-1 Rluc cells (dicistronic genotype 2a JFH-1 replicon, RLuc reporter)
# Test: microbe, parasite or virus in culture
# Assay type: cell-based
# Measurement Parameters: Hepatitis C virus, 72 h, Table 2; genotype 2a JFH-1 replicon, 72 hours; read-out: 2a JFH
Documented EC50 across a set of compounds
Measurement Type: EC50

* COC(=O)NC(C(=O)N1[C@@H]2CC[C@@H](C2)[C@H]1c1nc2ccc(-c3ccc4c(c3)C(F)(F)c3cc(-c5c[nH]c([C@H]6CCCN6C(=O)[C@H](NC(=O)OC)c6ccccc6)n5)ccc3-4)cc2[nH]1)[C@@H](C)OC (stereo partly shown) [Example 75] | 0.001 to 0.999 nM
* COC(=O)N[C@H](C(=O)N1CCC[C@H]1c1nc2ccc3cc(-c4ccc(-c5cnc([C@@H]6[C@H]7CC[C@H](C7)N6C(=O)[C@H](NC(=O)OC)c6ccccc6)[nH]5)cc4)ccc3c2[nH]1)C(C)C [Example 54] | 0.001 to 0.999 nM
* COC(=O)N[C@H](C(=O)N1[C@@H]2CC[C@@H](C2)[C@H]1c1ncc(-c2ccc3cc(-c4ccc5c(ccc6nc([C@@H]7CCCN7C(=O)[C@H](NC(=O)OC)c7ccccc7)[nH]c65)c4)ccc3c2)[nH]1)[C@@H](C)OC [Example 102] | 0.001 to 0.999 nM
* COC(=O)N[C@H](C(=O)N1CCC[C@H]1c1nc(-c2ccc3cc(-c4ccc(-c5cnc([C@@H]6CCCN6C(=O)[C@@H](c6ccccc6)N(C)C)[nH]5)cc4)ccc3c2)c[nH]1)C(C)C [Example 31] | 0.001 to 0.999 nM
* COC(=O)N[C@H](C(=O)N1CCC[C@H]1c1ncc(-c2ccc3c(c2)CCc2cc(-c4cnc([C@@H]5[C@H]6CC[C@H](C6)N5C(=O)[C@@H](NC(=O)OC)[C@@H](C)OC)[nH]4)ccc2-3)[nH]1)[C@@H](C)OC [Example 73] | 0.001 to 0.999 nM
* COC(=O)N[C@H](C(=O)N1[C@@H]2CC[C@@H](C2)[C@H]1c1ncc(-c2ccc(-c3ccc4cc(-c5cnc([C@@H]6CC7(CC7)CN6C(=O)C(c6ccccc6)N6CCOCC6)[nH]5)ccc4c3)cc2)[nH]1)C(C)C (stereo partly shown) [Example 28] | 1 to 44 nM
* COC(=O)N[C@H](C(=O)N1CCC[C@H]1c1ncc(-c2ccc3c(c2)CCc2cc(-c4cnc([C@@H]5[C@H]6CC[C@H](C6)N5C(=O)[C@@H](NC(=O)OC)C5CCOCC5)[nH]4)ccc2-3)[nH]1)C(C)C [Example 92] | 0.001 to 0.999 nM
* COC(=O)N[C@H](C(=O)N1CCC[C@H]1c1ncc(-c2ccc3cc(-c4ccc(-c5cnc([C@@H]6CC7(CN6C(=O)[C@H](NC(=O)OC)c6ccccc6)OCCO7)[nH]5)cc4)ccc3c2)[nH]1)C(C)C [Example 45] | 0.001 to 0.999 nM
* COC(=O)N[C@H](C(=O)N1CC2(C[C@H]1c1nc3ccc(-c4ccc5c(c4)C(F)(F)c4cc(-c6cnc([C@@H]7CCCN7C(=O)[C@H](NC(=O)OC)c7ccccc7)[nH]6)ccc4-5)cc3[nH]1)OCCO2)C1CCOCC1 [Example 59] | 0.001 to 0.999 nM
* COC(=O)N[C@H](C(=O)N1CC(=O)C[C@H]1c1ncc(-c2ccc(-c3ccc4cc(-c5cnc([C@@H]6CCCN6C(=O)[C@@H](c6ccccc6)N(C)C)[nH]5)ccc4c3)cc2)[nH]1)C(C)C [Example 33] | 0.001 to 0.999 nM
* COC(=O)N[C@H](C(=O)N1[C@@H]2CC[C@@H](C2)[C@H]1c1ncc(-c2ccc3c(c2)CCc2cc(-c4cnc([C@@H]5CCCN5C(=O)[C@@H](NC(=O)OC)C5CCOCC5)[nH]4)ccc2-3)[nH]1)C(C)C [Example 86] | 0.001 to 0.999 nM
* COC(=O)N[C@H](C(=O)N1CCC[C@H]1c1ncc(-c2ccc3cc(-c4ccc(-c5cnc([C@@H]6[C@H]7CC[C@H](C7)N6C(=O)[C@H](NC(=O)OC)c6ccccc6)[nH]5)cc4)ccc3c2)[nH]1)C(C)C [Example 48] | 1 to 44 nM
* COC(=O)N[C@H](C(=O)N1[C@@H]2CC[C@@H](C2)[C@H]1c1ncc(-c2ccc(-c3ccc4c(ccc5nc([C@@H]6C[C@H]7C[C@H]7N6C(=O)[C@@H](NC(=O)OC)C(C)C)[nH]c54)c3)cc2)[nH]1)C(C)C [Example 98] | 0.001 to 0.999 nM
* COC(=O)N[C@H](C(=O)N1CCC[C@H]1c1nc2ccc3cc(-c4ccc(-c5cnc([C@@H]6[C@H]7CC[C@H](C7)N6C(=O)[C@@H](NC(=O)OC)C6CCOCC6)[nH]5)cc4)ccc3c2[nH]1)C(C)C [Example 62] | 0.001 to 0.999 nM
* COC(=O)N[C@H](C(=O)N1CCC[C@H]1c1ncc(-c2ccc3c(c2)OCc2cc(-c4ccc5nc([C@@H]6[C@H]7CC[C@H](C7)N6C(=O)[C@@H](c6ccccc6)N(N)C(=O)OC)[nH]c5c4)ccc2-3)[nH]1)C(C)C [Example 74] | 0.001 to 0.999 nM
* COC(=O)N[C@H](C(=O)N1CCC[C@H]1c1ncc(-c2ccc3c(c2)CCc2cc(-c4ccc5nc([C@@H]6[C@H]7CC[C@H](C7)N6C(=O)[C@@H](NC(=O)OC)[C@@H](C)OC)[nH]c5c4)ccc2-3)[nH]1)[C@@H](C)OC [Example 76] | 1 to 44 nM
